Origin of measurements: patent US4853221A

Test: Oral bioavailability
Details: in vivo, administered orally
Value type: bioavailability

The compound listed as COc1cc(NCc2ccc3nc(N)nc(N)c3c2C)cc(OC)c1OC [Trimetrexate] has a reported bioavailability of ~80%

###

System: B-Cell 8392
Experiment: Inhibition of B-Cell 8392 growth in vitro
Format: cell-based, human
Settings: Homo sapiens, B-cell, 48 h, read-out: ED50
Value type: pIC50
Units for pIC50: none; it is -log10 of a concentration expressed in mol/L.

The compound listed as CN(Cc1cnc2nc(N)nc(N)c2n1)c1ccc(C(=O)N[C@@H](CCC(=O)O)C(=O)O)cc1 [Methotrexate, reference compound] has a reported pIC50 of 7.60
